Test: MTT cell viability assay in normal MCF-10A cells
Assay type: cell-based
Conditions: human, MCF-10A normal mammary epithelial cells; MCF-10A normal cells, 100 µM; read-out: Cell viability (%) ± SD
Listed below: viability at 72 h, 100 µM values for each entry.

As a guide, the following entries are already answered.
CC(=O)OC[C@H]1O[C@@H](n2cc(COc3cc(-c4ccc(Cl)cc4)nc4ccnn34)nn2)[C@H](OC(C)=O)[C@@H](OC(C)=O)[C@H]1OC(C)=O [Compound 10d] :: 84.4%
CC(=O)OC[C@H]1O[C@@H](n2cc(COc3cc(-c4ccc5ccccc5c4)nc4ccnn34)nn2)[C@H](OC(C)=O)[C@@H](OC(C)=O)[C@@H]1OC(C)=O :: 68.5%
CC(=O)OC[C@H]1O[C@@H](n2cc(COc3cc(-c4ccc(C(F)(F)F)cc4)nc4ccnn34)nn2)[C@H](OC(C)=O)[C@@H](OC(C)=O)[C@H]1OC(C)=O [Compound 10f] :: 84.2%
CC(=O)OC[C@H]1O[C@@H](n2cc(COc3cc(-c4ccc(C)cc4)nc4ccnn34)nn2)[C@H](OC(C)=O)[C@@H](OC(C)=O)[C@@H]1OC(C)=O :: 84.2%
CC(=O)OC[C@H]1O[C@H](n2cc(COc3cc(-c4ccc(C(C)C)cc4)nc4ccnn34)nn2)[C@@H](OC(C)=O)[C@@H](OC(C)=O)[C@@H]1OC(C)=O [Compound 11g] :: 88%

Attention now turns to another entry.
State its viability at 72 h, 100 µM for this compound: CC(=O)OC[C@H]1O[C@@H](n2cc(COc3cc(-c4ccc(Cl)cc4)nc4ccnn34)nn2)[C@H](OC(C)=O)[C@@H](OC(C)=O)[C@@H]1OC(C)=O
82%
